The origin of these recorded values is ChEMBL document CHEMBL3992529.

IC50: recorded values
# System: K562
# Procedure details: Cytotoxicity against human K562 cells measured after 72 hrs by MTT assay
# Assay type: functional, cell-based
# Run parameters: K562, 72 h
Structures can show the parent of a compound that is named as a salt.
Reply numerically in µM, unit not repeated.

Cc1ccc(NC(=O)c2ccc(CN3CCN(C)CC3)cc2)cc1Nc1nccc(-c2cccnc2)n1 [IMATINIB MESYLATE] ... 0.31
C=C1/C=C/C(=O)N(C)CC(=O)N[C@@H](C(C)C)C(=O)O[C@@H]([C@H](C)CCCCCC)[C@H](CCO[Si](c2ccccc2)(c2ccccc2)C(C)(C)C)C(=O)N1 ... 0.4

What does the data say about its IC50? Entry: C#CCCCC(=O)OCC[C@@H]1C(=O)NC(=C)/C=C/C(=O)N[C@H](C)C(=O)N[C@@H](C(C)C)C(=O)O[C@H]1[C@H](C)CCCCCC
8
